assaySystem: T1, interleukin 18 binding protein (IL-18BP) (UniProt O95998 31-194)
T1 sequence (looked up): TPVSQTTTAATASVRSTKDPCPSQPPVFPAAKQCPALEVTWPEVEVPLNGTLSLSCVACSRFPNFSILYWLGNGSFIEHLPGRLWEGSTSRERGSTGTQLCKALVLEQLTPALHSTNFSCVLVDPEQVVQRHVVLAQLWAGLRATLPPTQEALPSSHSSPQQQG
protocolDescription: cell-based or functional assay
readoutName: Ratio (-BP/+BP), DF-10000
Numbers only.

Please review the following examples before continuing.
Request the reported Ratio (-BP/+BP), DF-10000 associated with IL-18 variant K53D, S55Q, H109Y (ligand) YFGKLESKLSVIRNLNDQVLFIDQGNRPLFEDMTDSDMRDNAPRTIFIISMYDDQQPRGMAVTISVKSEKISTLSSENKIISFKEMNPPDNIKDTKSDIIFFQRSVPGYDNKMQFESSSYEGYFLASEKERDLFKLILKKEDELGDRSIMFTVQNED 1.94

Request the reported Ratio (-BP/+BP), DF-10000 associated with IL-18 variant K53N, S55H, H109F (ligand) YFGKLESKLSVIRNLNDQVLFIDQGNRPLFEDMTDSDMRDNAPRTIFIISMYNDHQPRGMAVTISVKSEKISTLSSENKIISFKEMNPPDNIKDTKSDIIFFQRSVPGFDNKMQFESSSYEGYFLASEKERDLFKLILKKEDELGDRSIMFTVQNED 1.17

With those in mind, consider the next binder.
Request the reported Ratio (-BP/+BP), DF-10000 associated with IL-18 variant T34S, S36L, D37E, D40Y, N41M, K53T, S55K, P107K, H109Q (ligand) YFGKLESKLSVIRNLNDQVLFIDQGNRPLFEDMSDLEMRYMAPRTIFIISMYTDKQPRGMAVTISVKSEKISTLSSENKIISFKEMNPPDNIKDTKSDIIFFQRSVKGQDNKMQFESSSYEGYFLASEKERDLFKLILKKEDELGDRSIMFTVQNED 1.11
